I'd appreciate it if you could supply percentage damage caused to the plant, five-point scale, ECHCG values for the items below.
# Test system: Echinochloa crus-galli (ECHCG)
# assay: Pre-emergence herbicidal glasshouse test
# Type: in vivo
# details: pre-emergence, 250 g/ha, 13 days after application

Req: I have this compound here, O=C(O)C(F)(F)c1cccc(Br)c1F , and I need its recorded percentage damage caused to the plant, five-point scale, ECHCG.
Resp: 4 (4=61-80%)

Req: // percentage damage caused to the plant, five-point scale, ECHCG lookup, key: O=C(O)C(F)(F)c1cccc(Cl)c1Br
Resp: 2 (2=21-40%)

Req: What value of measured percentage damage caused to the plant, five-point scale, ECHCG is listed for O=C(O)C(F)(F)c1cccc(Br)c1Cl ?
Resp: 4 (4=61-80%)

Req: # input compound: O=C(O)C(F)(F)c1cccc(F)c1Br ; wanted: its percentage damage caused to the plant, five-point scale, ECHCG
Resp: 1 (1=0-20%)

Req: Need percentage damage caused to the plant, five-point scale, ECHCG, item O=C(O)C(F)(F)c1cccc(Cl)c1Cl [Compound 1.040]
Resp: 1 (1=0-20%)

Req: Entry Cc1c(F)cccc1C(F)(F)C(=O)O : reported percentage damage caused to the plant, five-point scale, ECHCG = ?
Resp: 1 (1=0-20%)

Req: Fill in the blank: the reported percentage damage caused to the plant, five-point scale, ECHCG of O=C(O)C(F)(F)c1cc(Cl)ccc1Cl is ____.
Resp: 1 (1=0-20%)

Req: Value lookup for percentage damage caused to the plant, five-point scale, ECHCG; key = COC(=O)C(F)(F)c1ccc(Cl)cc1Cl
Resp: 1 (1=0-20%)

Req: Suppose we examine the compound O=C(O)C(F)(F)c1ccc(F)c(Cl)c1F ; what percentage damage caused to the plant, five-point scale, ECHCG value has been reported?
Resp: 1 (1=0-20%)

Req: Item under review: O=C([O-])C(F)(F)c1cccc(Cl)c1Cl.[Na+] . Reported percentage damage caused to the plant, five-point scale, ECHCG?
Resp: 1 (1=0-20%)

Req: Entry O=C(O)C(F)(F)c1cccc(C(F)(F)F)c1Cl : reported percentage damage caused to the plant, five-point scale, ECHCG = ?
Resp: 1 (1=0-20%)

Req: Can you look up the measured percentage damage caused to the plant, five-point scale, ECHCG of O=C(O)C(F)(F)c1cccc(Cl)c1F for me?
Resp: 1 (1=0-20%)

Req: Please look up its percentage damage caused to the plant, five-point scale, ECHCG: O=C([O-])C(F)(F)c1cccc(Cl)c1Cl.[K+]
Resp: 1 (1=0-20%)

Req: Need percentage damage caused to the plant, five-point scale, ECHCG of COC(=O)C(F)(F)c1c(Cl)ccc(Cl)c1Cl , thanks.
Resp: 1 (1=0-20%)
